System: wheat germ agglutinin (Triticum aestivum), Alexa647-labelled
procedure text: wheat germ agglutinin binders on compound microarrays, profiling panel, artefact control for SMM control-protein annotation, biochemical, small-molecule microarray, 635/667 nm fluorescence (AID 1140);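 further: score merges 667 nm feature emission with signal to noise over triplicate slides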
measurement parameters: WGA-A647 binding, 635 nm fluorescence, higher = more signal
Kindly return yes if reported composite z-score is no lower than 0.09; return no if it is lower.

Incoming: Would you say COCCOC(=O)N1C(=O)[C@@]2(c3cc(C#Cc4ccc(OC)cc4)ccc31)[C@H](c1ccc(O)cc1)N1[C@H](c3ccccc3)[C@H](c3ccccc3)OC(=O)[C@H]1[C@@H]2C(N)=O shows composite z-score at minimum 0.09?
Outgoing: yes

Incoming: Would you say CC(CCC(=O)OC[C@H]1O[C@H](C#Cc2ccccc2)C=C[C@@H]1Oc1ccc(C)cc1)=NOC[C@@H](O)COCc1ccco1 shows composite z-score at minimum 0.09?
Outgoing: no

Incoming: Would you say COCC(=C=CC[C@@H](O)c1ccccc1OCCO)CCO shows composite z-score at minimum 0.09?
Outgoing: no

Incoming: Would you say C[C@@H](c1ccccc1)N1C(=O)[C@H]2[C@H]3[C@H](O)C=CC(=O)[C@@H]3CC[C@H]2C1=O shows composite z-score at minimum 0.09?
Outgoing: yes

Incoming: Would you say COc1ccc(O[C@H]2C=C[C@@H](c3ccccc3)O[C@@H]2CON=C[C@@H](C)[C@H](OCc2ccccc2)C(C)C)cc1 shows composite z-score at minimum 0.09?
Outgoing: yes

Incoming: Would you say O=C1[C@H]2[C@H]3[C@H](O)[C@H](O)CC(=NOCc4ccccc4)[C@@H]3CC[C@H]2C(=O)N1C1CCCCC1 shows composite z-score at minimum 0.09?
Outgoing: no

----------
procedure text: basal MM1S mitochondrial membrane potential changes, profiling panel, cell-based, JC-1 fluorescence, 24 h, 100 nL compound (AID 1170); further: test concentration not given here
measurement parameters: higher = more signal
reported metric: z-score
Form rule: numeric answer, no unit written next to it.

Incoming: I have this compound here, O=C1c2ccccc2[C@@]2(Cc3ccccc3N(C3CC3)C2=O)[C@H](c2ccc(CO)cc2)N1Cc1ccccc1C(F)(F)F , and I need its recorded z-score.
Outgoing: -1.56

Incoming: I have this compound here, CCOC(=O)[C@H](CC(C)C)NC(=O)CCC1CC(OC(=O)NCc2cccc3ccccc23)CC2(CCCC(COC(=O)NCCc3ccccc3OC)O2)O1 (some centres undefined) , and I need its recorded z-score.
Outgoing: -0.157

Incoming: I have this compound here, CCc1cc2c(nc1CC)CCN(CCC(C)=NOC[C@@H](O)COCc1ccco1)C2 , and I need its recorded z-score.
Outgoing: 0.581

Incoming: I have this compound here, C#CCCCON=C1C[C@@H](O)[C@@H](O)[C@@H]2[C@@H]3C(=O)N(CCC(=O)OCC)C(=O)[C@@H]3CC[C@@H]12 , and I need its recorded z-score.
Outgoing: -0.123

Incoming: I have this compound here, Cn1c(=O)n2n(c1=O)[C@H]1[C@H](O)[C@@H]3O[C@@H]3C(=NOC[C@@H](O)COCc3ccco3)[C@H]1CC2 , and I need its recorded z-score.
Outgoing: -0.397

Incoming: I have this compound here, CC(C)CON=C1C[C@@H](O)[C@@H](O)[C@@H]2[C@@H]3C(=O)N(Cc4ccccc4)C(=O)[C@@H]3CC[C@@H]12 , and I need its recorded z-score.
Outgoing: -0.659

Incoming: I have this compound here, O=C1[C@H]2[C@H]3[C@H](O)[C@H](O)CC(=NO[C@@H]4O[C@H](CO)[C@@H](O)[C@H](O)[C@H]4O)[C@H]3CC[C@H]2C(=O)N1C1CCCCC1 , and I need its recorded z-score.
Outgoing: -0.11

Incoming: I have this compound here, Cc1ccc(S[C@]2(C(=O)NCC(F)(F)F)CC(=O)N(Cc3ccccc3Cl)[C@@H]2c2ccc(CO)cc2I)cc1 , and I need its recorded z-score.
Outgoing: -1.18

Incoming: I have this compound here, COCCOC(=O)N1C(=O)[C@@]2(c3cc(C#Cc4ccc(OC)cc4)ccc31)[C@H](C(=O)N1CCN(c3ncccn3)CC1)[C@H]1C(=O)O[C@H](c3ccccc3)[C@H](c3ccccc3)N1[C@@H]2c1ccc(OCCO)cc1 , and I need its recorded z-score.
Outgoing: -0.885

Incoming: I have this compound here, COc1ccc(CCNC(=O)[C@@H]2c3ccccc3C(=O)N(c3ccc(C)cn3)[C@H]2c2ccc(CO)cc2)cc1 , and I need its recorded z-score.
Outgoing: 0.634

Incoming: I have this compound here, CCOC(=O)[C@H](CC(C)C)NC(=O)CCC1CC(OC(=O)NCCc2ccc(F)cc2)CC2(CCCC(COC(=O)NCc3ccccc3)O2)O1 (some centres undefined) , and I need its recorded z-score.
Outgoing: -1.45

Incoming: I have this compound here, CC(C)NC(=O)[C@@]1(c2ccc([N+](=O)[O-])cc2)CC(=O)N(CC23CC4CC(CC(C4)C2)C3)[C@@H]1c1ccc(CO)cc1I , and I need its recorded z-score.
Outgoing: -2.08

Incoming: I have this compound here, CCCNC(=O)[C@@H]1c2ccccc2C(=O)N(c2ccc(C)cn2)[C@H]1c1ccc(CO)cc1 , and I need its recorded z-score.
Outgoing: -0.351

Incoming: I have this compound here, CO[C@H]1O[C@H](CO)[C@@H](OC(=O)Nc2ccc(C#N)cc2)[C@H](OC(=O)c2cc3ccccc3[nH]2)[C@H]1OC(=O)c1cc2ccccc2[nH]1 , and I need its recorded z-score.
Outgoing: -0.384

----------
procedure text: A549 cell viability effects, profiling panel, calcein-AM fluorescence, 48 h, basal (AID 1162); further: test concentration not given here
measurement parameters: higher = more signal
So I've got a bunch of compounds here, and I need their z-score values.
Form rule: numeric answer, no unit written next to it.

Incoming: I have this compound here, O=C1C[C@@H](O)[C@@H](O)[C@@H]2[C@@H]3C(=O)N(C4CCCCC4)C(=O)[C@@H]3CC[C@H]12 , and I need its recorded z-score.
Outgoing: 0.18

Incoming: I have this compound here, CN1C(=O)C2C=CC(C(O)C(c3ccccc3)c3ccccc3)N(NC(=O)OC(C)(C)C)C2C1=O (stereo not drawn) , and I need its recorded z-score.
Outgoing: -1.23

Incoming: I have this compound here, CCc1cc2c(nc1CC)CCN(CCC(C)=NOC[C@@H](O)COCc1ccco1)C2 , and I need its recorded z-score.
Outgoing: 0.902

Incoming: I have this compound here, C=CCNC(=O)[C@H]1[C@@H]2C(=O)O[C@@H](c3ccccc3)[C@@H](c3ccccc3)N2[C@@H](c2ccc(O)cc2)[C@]12C(=O)N(C(=O)OCCOC)c1ccc(C#CC3=CCCCC3)cc12 , and I need its recorded z-score.
Outgoing: -1.1

Incoming: I have this compound here, O=C(NN=C1C[C@@H](O)[C@@H](O)[C@@H]2[C@@H]3C(=O)N(c4cccc(Oc5ccccc5)c4)C(=O)[C@@H]3CC[C@@H]12)OCc1ccccc1 , and I need its recorded z-score.
Outgoing: 0.359

Incoming: I have this compound here, CCCC[C@@H]1C[C@H]1[C@@H](NS(=O)(=O)c1cccc2cccnc12)c1ccc(-c2ccccc2)cc1 , and I need its recorded z-score.
Outgoing: -1.11

Incoming: I have this compound here, CC(C)CN1CCc2nc(-c3ccccc3)c3c(c2CC1)CO[C@@H](C)C3 , and I need its recorded z-score.
Outgoing: 0.277

Incoming: I have this compound here, C[C@@H]1C=CCC(=O)OC[C@H](C)C(=O)OC[C@H]2O[C@H]1C=C[C@H]2O , and I need its recorded z-score.
Outgoing: 0.145

----------
assay system: Torsin-1A (Homo sapiens) (UniProt O14656)
Sequence (O14656 whole entry, looked up): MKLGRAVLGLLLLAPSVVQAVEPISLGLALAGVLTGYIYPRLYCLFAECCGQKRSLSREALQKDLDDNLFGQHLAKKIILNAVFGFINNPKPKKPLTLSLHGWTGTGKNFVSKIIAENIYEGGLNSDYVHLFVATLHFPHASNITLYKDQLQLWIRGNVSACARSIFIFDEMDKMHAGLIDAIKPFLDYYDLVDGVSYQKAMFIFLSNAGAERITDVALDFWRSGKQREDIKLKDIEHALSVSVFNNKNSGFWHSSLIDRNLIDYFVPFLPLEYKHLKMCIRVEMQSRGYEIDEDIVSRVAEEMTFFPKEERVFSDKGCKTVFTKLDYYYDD
procedure text: torsin A binders from cell lysate, primary screen, small-molecule microarray, wild-type, 635/667 nm (AID 1149)
measurement parameters: COS7 hTOR1A-WT lysate, 635 nm fluorescence, higher = more signal
So I've got a bunch of compounds here, and I need their composite z-score values.

Incoming: I have this compound here, C=CCN1C(=O)[C@]2(O[C@H](CCn3cc(CCO)nn3)[C@@H]([Si](C)(C)c3ccc(OC)cc3)[C@@H]2C)c2cc(N3CCOC3=O)ccc21 , and I need its recorded composite z-score.
Outgoing: 0.419

Incoming: I have this compound here, C[C@@H]1CC[C@H]2C(=O)O[C@H](COc3ccc(C(C)(C)C)cc3)CN2[C@H]1c1ccc(Br)cc1 , and I need its recorded composite z-score.
Outgoing: -0.175

Incoming: I have this compound here, COCCNC(=O)OCC1CCCC2(CC(OC(=O)NCCc3ccc(F)cc3)CC(CCC(=O)N[C@@H](C)C(=O)OC)O2)O1 (some centres undefined) , and I need its recorded composite z-score.
Outgoing: 0.267

Incoming: I have this compound here, COc1ccc(O[C@H]2C=C[C@@H](c3ccccc3)O[C@@H]2COC(=O)CCC(C)=NO[C@H](C)c2cn([C@@H]3COC[C@H]3O)nn2)cc1 , and I need its recorded composite z-score.
Outgoing: 0.249
